- Test Summary: probe aShh binding to arrayed compounds – biochemical, biotinylated probe, 635/667 nm fluorescence, primary screen (AID 1114);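 further: probe is biotin-labelled aShh protein from a stem cell growth factor screen; measures binding of labelled protein to compounds printed on the slide; score merges feature fluorescence at 667 nm with signal-to-noise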
- Measurement Conditions: small-molecule microarray, higher = more signal

>  <Compound>
COC(=O)[C@@]1(Cc2ccc(F)cc2)[C@H]2c3cc(C(=O)N(C)C)n(CCc4ccc(OC)c(Br)c4)c3C[C@H]2CN1C(=O)c1ccccc1

>  <composite z-score>
0.289

$$$$
>  <Compound>
COCCOC(=O)N1C(=O)[C@@]2(c3cc(C#CCC(C(=O)OC)C(=O)OC)ccc31)[C@H](c1ccc(OCCO)cc1)N1[C@H](c3ccccc3)[C@H](c3ccccc3)OC(=O)[C@H]1[C@@H]2C(=O)N1CCc2cc(OC)c(OC)cc2C1

>  <composite z-score>
0.123

$$$$
>  <Compound>
COc1cc(OC)c(C(O)C2C=CC3C(=O)N(Cc4ccccc4)C(=O)C3N2n2cnnc2)cc1Br (stereo not given)

>  <composite z-score>
-0.131

$$$$
>  <Compound>
C=CC[C@@]1(C(=O)NCCCOC)N=C(c2ccc(OCCCO)cc2)O[C@@H]1c1ccccc1

>  <composite z-score>
-0.102

$$$$
>  <Compound>
CCOC(=O)C1=C[C@@H](C(C)(C)C)N(S(=O)(=O)c2ccc(C)cc2)[C@H]1c1cccc2ccccc12

>  <composite z-score>
-0.156

$$$$
>  <Compound>
COC(=O)[C@]1(CCS(=O)(=O)c2ccccc2)N=C(c2ccc(OCCCO)cc2)O[C@@H]1c1ccccc1N=[N+]=[N-]

>  <composite z-score>
0.232

$$$$
>  <Compound>
NC(=O)[C@H]1[C@@H]2C(=O)O[C@@H](c3ccccc3)[C@@H](c3ccccc3)N2[C@@H](c2ccc(OCCO)cc2)[C@]12C(=O)Nc1ccc(C#CCCO)cc12

>  <composite z-score>
-0.253

$$$$
>  <Compound>
CCCCCCCCCC(O)C1C=CC2C(=O)N(c3ccccc3)C(=O)C2N1Nc1cc(OC)c(OC)c(OC)c1 (stereo not given)

>  <composite z-score>
0.239

$$$$
>  <Compound>
COc1cccc(C)c1NC(=O)O[C@H]1[C@H](OC(=O)Nc2ccc3c(c2)OCO3)[C@@H](OC(=O)Nc2ccc3c(c2)OCO3)[C@@H](OC)O[C@@H]1CO

>  <composite z-score>
0.149

$$$$
>  <Compound>
CCCCCN1CC=CC23O[C@@H]4/C=C\CCC(C)OC(=O)C4[C@H]2C(=O)N(C(CO)C(C)C)[C@@H]3C1=O (stereo not given in full)

>  <composite z-score>
-0.469

$$$$
>  <Compound>
COc1cc(NN2C(C(O)c3ccc(N(C)C)cc3)C=CC3C(=O)N(c4ccccc4)C(=O)C32)cc(OC)c1OC (stereo not given)

>  <composite z-score>
0.184

$$$$
>  <Compound>
COCCOC(=O)N1C(=O)[C@@]2(c3ccccc31)[C@H](C(=O)NC[C@H](O)c1ccccc1)[C@H]1C(=O)O[C@H](c3ccccc3)[C@H](c3ccccc3)N1[C@@H]2c1ccc(O)cc1

>  <composite z-score>
0.209

$$$$
>  <Compound>
CC(C)[Si](C#CCCCC#N)(O[C@H](c1ccccc1)c1cn(Cc2ccccc2)nn1)C(C)C

>  <composite z-score>
0.0469

$$$$
>  <Compound>
CC1CC/C=C\[C@H]2OC34C=CCN(C(C)(C)C)C(=O)[C@H]3N(CCCCCO)C(=O)[C@@H]4C2C(=O)O1 (stereo not given in full)

>  <composite z-score>
-0.283

$$$$
>  <Compound>
COCC(=C=CC[C@H](O)c1ccc(CO)o1)CCO

>  <composite z-score>
-0.0119

$$$$

Source of measurements: PubChem BioAssay
